Literature roundup of ROCK2 (Homo sapiens, UniProt O75116) data, read-out IC50.

// known answers, use as guide
{"compound": "Cc1cc2ccc(-c3nccc(Nc4ccc5[nH]ncc5c4)n3)cc2[nH]1", "IC50": "387 nM"}
{"compound": "O=C1OCC(c2ccccc2)N1c1ccc(-c2n[nH]c(=O)c3ccccc23)cc1 (centres unmarked)", "IC50": "100 to 500 nM"}
{"compound": "COc1cc(NC(=O)[C@H](N)Cc2ccccc2C(F)(F)F)ccc1-c1cn[nH]c1", "IC50": "23.6 nM"}

Take each entry in turn and give its IC50.
1. CC(c1ccccc1)n1nnn(-c2ccc(-c3cn[nH]c3)cc2)c1=O (centres unmarked)
2. COc1cc(F)cc(CN2C(=O)CN(c3ccc(-c4cn[nH]c4)c(OC)c3)C2=O)c1
3. CC(NC(=O)c1ccc(-c2cn[nH]c2)c(C=O)c1)c1ccccc1F (centres unmarked)
4. COc1cc(N2CCC3(CCN(C(=O)c4ccc(C(N)=O)cc4)CC3)C2=O)ccc1-c1cn[nH]c1
5. COc1cc(C#N)c2c(c1)CCN2C(=O)Cc1ccc(Oc2ncccc2C(N)=O)cc1

**A:**
5 to 50 nM
2.1 to 20 nM
409 nM
35 nM
1090 nM
